test system: Sporothrix brasiliensis CBS 133006; assay: growth inhibition relative to untreated control; higher = more growth inhibition (more antifungal activity), active = 80 or more; extreme values may be limits of the assay; conditions: 1 µM; 48 h
Class YES: growth inhibition at least 10%. Class NO: growth inhibition below 10%.

1. Cc1noc(C)c1COc1cccc(C(=O)N=c2[nH]cccc2C)c1    NO
2. Cc1ccc2nc(C)c(-c3ccn(Cc4ccccc4)n3)n2c1    YES
3. CC(C)(C)CN1C(=O)C(c2ccccc2)(c2ccccc2)N=C1N    YES
4. CC(C)=CCC/C(C)=C/CNCCNC1C2CC3CC(C2)CC1C3 (configuration not stated)    YES
5. COc1cccc(OCC(=O)c2ccc(Br)cc2)c1    YES
6. O=C(Nc1ccc2c(c1)B(O)OC2)c1ccccc1C(F)(F)F    YES
7. N#Cc1ccc(-c2ccc(OCC(N)=O)cc2)cc1    YES
8. Nc1ccc2ncnc(Nc3ccc(OCc4cccc(F)c4)c(Cl)c3)c2c1    YES
9. CS(=O)(=O)Cc1nc2ccccc2oc1=O    YES
10. COc1cccc(OC)c1C(=O)Nc1ccc(Cl)c(-c2nc3ccccc3s2)c1    NO
11. COCC(C)NC(=O)CSc1ncnc2sc(-c3ccccc3)cc12 (configuration not stated)    YES
12. Nc1ncc(-c2ccc(C(F)(F)F)nc2)cc1-c1ccc(C(F)(F)F)nc1    YES
13. O=C1N(Cc2cc3ccccc3s2)CC2CN(Cc3ccccc3)CCN12 (configuration not stated)    YES
14. NC(=O)c1cc(-c2ccsc2)ccc1OCCOc1ccccc1    NO
15. COc1cc(C(F)(F)F)nc2ccc(C)c(N)c12    NO
16. CC(C)(CN)c1nc(-c2ccc(Cl)c(O)c2)c(-c2ccnc(N)n2)[nH]1    NO
17. O=C(c1ccc(F)cc1)N(CCNc1ccccc1)c1ccccc1    YES
18. Cc1ccc(-c2cc(C(=O)Nc3cccnc3)c3cc(Br)ccc3n2)cc1    YES
19. N#Cc1nc(-c2ccccc2)oc1S(=O)(=O)c1ccc(Cl)cc1    YES
20. CN(C(=O)c1cc2c(-c3cncnc3)cccc2[nH]1)c1ccccc1    NO
21. COC(=O)Nc1nc2cc(C(=O)c3ccccc3)ccc2[nH]1    NO
22. CN1CCCC1CCO[C@](C)(c1ccccc1)c1ccc(Cl)cc1 (some centres not stated)    YES
23. COc1cccc(-c2cc3c(Nc4cccnc4)nccc3[nH]2)c1    NO
24. Brc1c(-c2ccc3c(c2)OCO3)nc2ncccn12    YES
25. c1ccc(-c2[nH]c3ccccc3c2C(c2ccccn2)N2CCCC2)cc1 (configuration not stated)    NO
26. Cc1nn2c(=O)c3c([nH]c2c1-c1ccc(Cl)cc1)CCCC3    YES
27. c1coc(CNc2nc(N3CCCCC3)nc3ccccc23)c1    NO
28. CC(=O)Nc1ccc(NC(=O)c2cc(-c3cc(Cl)ccc3O)n[nH]2)cc1    NO
29. COc1ccc2nccc(NC(=O)C3CCN(CCc4ccc(Cl)cc4)CC3)c2n1    YES
30. Cc1cnc(N2CCN[C@@H](Cc3ccccc3)C2)nc1Oc1ccc(-n2ccnc2)cc1    NO
31. CCS(=O)(=O)N(Cc1ccco1)Cc1cc2ccc(C)cc2nc1O    NO
32. CCCn1nnc(NC(=O)COc2ccc(C3CCCCC3)cc2)n1    YES
33. Cc1ccc(C(=O)Nc2ccc(S(=O)(=O)O)c3cc(S(=O)(=O)O)cc(S(=O)(=O)O)c23)cc1NC(=O)c1cccc(NC(=O)Nc2cccc(C(=O)Nc3cc(C(=O)Nc4ccc(S(=O)(=O)O)c5cc(S(=O)(=O)O)cc(S(=O)(=O)O)c45)ccc3C)c2)c1    YES
34. CCC(Sc1nc2ccccc2o1)C(=O)Nc1nnc(C)s1 (configuration not stated)    YES
35. CO[C@H]1/C=C\O[C@@]2(C)Oc3c(C)c(O)c4c(O)c(/c(=C/NN5CCN(C)CC5)c(O)c4c3C2=O)=N\C(=O)/C(C)=C\C=C/[C@H](C)[C@H](O)[C@@H](C)[C@@H](O)[C@@H](C)[C@H](OC(C)=O)[C@@H]1C    NO
36. Cc1ccc2oc(-c3cc(NC(=O)Cc4ccccc4)ccc3Cl)nc2c1    YES
37. CCOc1ccc(OCC(=O)Nc2cc(C)cc(C)c2)cc1    YES
38. O=C(Nc1ccc(C(F)(F)F)c(C(F)(F)F)c1)c1cc(Cl)ccc1O    YES
39. Nc1ncc(-c2cn[nH]c2)cc1-c1nc2cc(Cl)cnc2[nH]1    YES
40. O=C(NCCc1c[nH]c2ccccc12)c1cc2ccccc2oc1=O    YES
41. COc1cccc(NC(=O)c2c(NC(=O)c3cccnc3)sc3c2CCC3)c1    YES
